Where these numbers come from: PubChem BioAssay (NCI)

# Tested on: SK-MEL-28 melanoma
# test.name: NCI tumour cell line growth inhibition, 48 h
outcome.measure: TGI (µM)

{"molecule": "CC[C@]12C=CCN3CC[C@]4(C(=C(C(=O)OC)C1)Nc1cc(O)ccc14)[C@@H]32", "system.name": "SK-MEL-28 melanoma", "lt.gt.eq": "=", "quantitative.readout": 42.5}
{"molecule": "CCOC(=O)c1c2c(n(C)c1-c1ccccc1)C(=O)C(C)=CC2=O", "system.name": "SK-MEL-28 melanoma", "lt.gt.eq": "=", "quantitative.readout": 27.8}
{"molecule": "c1ccc2c(c1)CCCc1cc3ccccc3nc1-2", "system.name": "SK-MEL-28 melanoma", "lt.gt.eq": ">", "quantitative.readout": 100}
{"molecule": "CCOC(=O)c1[nH]c2c(c1C)-c1[nH]c(=O)c(S(=O)(=O)c3ccccc3)cc1SC2", "system.name": "SK-MEL-28 melanoma", "lt.gt.eq": ">", "quantitative.readout": 100}
{"molecule": "S=C(Nc1ccccc1)Nc1[nH]c(=S)sc1-c1nc2ccccc2[nH]1", "system.name": "SK-MEL-28 melanoma", "lt.gt.eq": ">", "quantitative.readout": 100}
{"molecule": "O=C(Nc1cccc2nsnc12)c1cc2c(cc1Cl)Sc1nccn1S2(=O)=O", "system.name": "SK-MEL-28 melanoma", "lt.gt.eq": "=", "quantitative.readout": 8.86}
{"molecule": "O=C(Oc1c(I)ccccc1=O)c1ccc([N+](=O)[O-])cc1", "system.name": "SK-MEL-28 melanoma", "lt.gt.eq": "=", "quantitative.readout": 21.7}
{"molecule": "CCOC(=O)C1C(c2cc(OC)c(O)c(OC)c2)c2cc3c(cc2OC1(C)O)OCO3 (stereo not given)", "system.name": "SK-MEL-28 melanoma", "lt.gt.eq": ">", "quantitative.readout": 100}
{"molecule": "COc1ccc(N2C(=O)C3c4[nH]c5ccc(C)cc5c4C4CCC(C(C)C)CC4C3C2=O)cc1 (stereo not given)", "system.name": "SK-MEL-28 melanoma", "lt.gt.eq": ">", "quantitative.readout": 100}
{"molecule": "CCOC(=O)c1cnc2[nH]c(=O)c3ccccc3n2c1=O", "system.name": "SK-MEL-28 melanoma", "lt.gt.eq": ">", "quantitative.readout": 100}
